B1: library; numbered along this chain (parent)
chain: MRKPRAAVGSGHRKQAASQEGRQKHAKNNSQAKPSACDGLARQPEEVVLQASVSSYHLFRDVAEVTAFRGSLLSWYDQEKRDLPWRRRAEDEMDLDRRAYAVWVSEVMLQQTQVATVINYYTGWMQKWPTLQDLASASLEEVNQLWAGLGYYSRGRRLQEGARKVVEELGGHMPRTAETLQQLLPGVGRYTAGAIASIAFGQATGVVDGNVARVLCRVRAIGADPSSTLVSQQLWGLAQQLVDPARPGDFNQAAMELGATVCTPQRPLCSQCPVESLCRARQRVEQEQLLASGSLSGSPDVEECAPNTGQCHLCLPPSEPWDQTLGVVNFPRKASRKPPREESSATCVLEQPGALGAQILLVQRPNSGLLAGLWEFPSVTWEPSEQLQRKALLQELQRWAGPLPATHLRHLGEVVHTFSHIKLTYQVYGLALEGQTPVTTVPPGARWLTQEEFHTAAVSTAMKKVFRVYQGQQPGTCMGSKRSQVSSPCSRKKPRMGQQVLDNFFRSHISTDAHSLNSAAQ

Variants of: B1
TEST DETAILS: 8OG:A repair function score (normalized; synonymous = 0, nonsense = -1) (normalized log-likelihood score); higher = more repair activity (WT-like);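 note: cells sorted at 72 h after reporter transfection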
PROTOCOL CONDITIONS: with 8OG:A DNA repair reporter (GFP) in HEK-293 MUTYH KO cells
Quick rule: 8OG:A repair function score of at least -0.09 means condition met, below that means condition not met.

- VARIANT ID: "E319C"
  CLASS ASSIGNMENT: "condition met"
- VARIANT ID: "G444K"
  CLASS ASSIGNMENT: "condition not met"
- VARIANT ID: "P494W"
  CLASS ASSIGNMENT: "condition met"
- VARIANT ID: "A67T"
  CLASS ASSIGNMENT: "condition met"
- VARIANT ID: "A212F"
  CLASS ASSIGNMENT: "condition not met"

Threshold query (8OG:A repair function score >= -0.09) on `S490P` condition met

Query `G297Q` next condition met

Query `M93I` next condition met

Query `G412W` next condition not met

Query `L408K` next condition not met

Query `L83C` next condition not met
